# GFP response vs DMSO values compiled below
- RUN DESCRIPTION: RPL19A-GFP modulators, yeast TOR pathway, confirmation, cell-based, S. cerevisiae, flow cytometry, cherry picks, mother/daughter gates (AID 2270)
- DETAILS: S. cerevisiae RPL19A-GFP strain, 3 h, measured here: mother cell gate, at 10 µM, stronger effect = lower value, 100 = same GFP as DMSO wells
Reply numerically in %, unit not repeated.

Consider the reported GFP response vs DMSO for these molecules:
[[record]]
structure_as_smiles = "CCN(CC)c1ccc(/C=C/[N+](=O)[O-])cc1"
meas_value = 100

[[record]]
structure_as_smiles = "C[C@]12CCC(=O)C(O)=C1CC[C@@H]1[C@@H]2CC[C@]2(C)C(=O)CC[C@@H]12"
meas_value = 99.2

[[record]]
structure_as_smiles = "O=C1NC(=O)N(Cc2ccco2)C(=O)/C1=C/c1ccc(-c2cccc([N+](=O)[O-])c2)o1"
meas_value = 96.7

[[record]]
structure_as_smiles = "O=C(O)c1[nH]c(=O)[nH]c(=O)c1F"
meas_value = 95.6


Please look at the following molecule next.
What measured GFP response vs DMSO goes with O=C1NC(=S)NC(=O)C1=Cc1ccc2c(c1)CCN2CCCCl ? 86

* * *

Entries and their inhibition
- EXPERIMENTAL SYSTEM: Lethal factor (Bacillus anthracis) (UniProt P15917)
- Sequence (P15917 whole entry, looked up): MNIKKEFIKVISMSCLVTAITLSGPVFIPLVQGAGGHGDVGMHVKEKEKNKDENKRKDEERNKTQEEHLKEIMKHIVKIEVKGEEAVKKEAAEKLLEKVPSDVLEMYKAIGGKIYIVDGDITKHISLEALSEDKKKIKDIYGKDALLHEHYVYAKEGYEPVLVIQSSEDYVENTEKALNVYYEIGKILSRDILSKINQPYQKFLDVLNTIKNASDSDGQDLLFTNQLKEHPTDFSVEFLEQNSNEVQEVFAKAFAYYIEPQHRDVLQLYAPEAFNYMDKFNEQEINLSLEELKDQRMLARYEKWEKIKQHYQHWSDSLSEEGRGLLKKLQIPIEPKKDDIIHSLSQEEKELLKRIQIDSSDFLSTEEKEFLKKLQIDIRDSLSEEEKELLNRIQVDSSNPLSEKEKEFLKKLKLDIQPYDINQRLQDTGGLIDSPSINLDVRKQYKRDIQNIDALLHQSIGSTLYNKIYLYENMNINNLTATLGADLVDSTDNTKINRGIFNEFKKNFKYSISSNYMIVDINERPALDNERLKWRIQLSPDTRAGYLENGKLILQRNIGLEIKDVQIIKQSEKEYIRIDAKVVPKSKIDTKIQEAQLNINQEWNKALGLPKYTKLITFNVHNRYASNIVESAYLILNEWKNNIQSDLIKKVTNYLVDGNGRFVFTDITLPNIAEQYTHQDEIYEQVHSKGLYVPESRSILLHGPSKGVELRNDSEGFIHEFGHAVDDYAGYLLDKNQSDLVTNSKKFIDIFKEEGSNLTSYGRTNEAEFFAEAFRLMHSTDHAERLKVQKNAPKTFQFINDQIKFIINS
- RUN DESCRIPTION: Lethal factor protease inhibitors, Bacillus anthracis, multiplex microsphere cleavage assay, validation set (AID 588461)
- DETAILS: flow cytometry, at 10 µM, stronger effect = higher value
Activity calls are given as the source filed them. No rule for the calls is given here.

// below: answered compounds
[[record]]
compound = "O=c1nc2n(c3c1oc1ccccc13)Cc1ccccc1-2"
attribute_measured = "inhibition"
meas_value = "-4.3% (inactive)"

[[record]]
compound = "CC(=O)Nc1ccccc1C(=O)C(=O)Nc1ccccc1"
attribute_measured = "inhibition"
meas_value = "-1.5% (inactive)"

[[record]]
compound = "COc1ccc(-c2noc(CCc3ccccc3)n2)cc1"
attribute_measured = "inhibition"
meas_value = "-11% (inactive)"

[[record]]
compound = "COC(=O)CCC(=O)CN"
attribute_measured = "inhibition"
meas_value = "0.6% (inactive)"

[[record]]
compound = "COc1cc2nc(N3CCN(C(=O)C4COc5ccccc5O4)CC3)nc(N)c2cc1OC (stereo not drawn)"
attribute_measured = "inhibition"
meas_value = "-2.9% (inactive)"

[[record]]
compound = "Cc1ccsc1/C=C/C1=NCCCN1C"
attribute_measured = "inhibition"
meas_value = "-3.7% (inactive)"


Returns the measured inhibition for the input compound. Input: CCN(CC)C(=O)c1sc(NC(=O)c2c(OC)cccc2OC)c(C#N)c1C 3.6% (inactive)

Report inhibition for CNC[C@H](O)c1ccc(O)c(O)c1 please. -4.8% (inactive)

I have this compound here, CC(=O)Nc1nnc(S(N)(=O)=O)s1 , and I need its recorded inhibition. -2.6% (inactive)

Which inhibition reading was recorded for the compound Cc1nc(C(=O)Nc2ccccc2Cl)cc2c1[nH]c1ccccc12 ? -4.5% (inactive)

* * *

- EXPERIMENTAL SYSTEM: Beta-adrenergic receptor kinase 1 (Homo sapiens)
- RUN DESCRIPTION: GRK2 binders displacing RNA aptamer, biochemical, validation, human GRK2, bead flow cytometry (AID 488806)
- DETAILS: bead-bound GRK2, FAM-aptamer displacement, at 10 µM, stronger effect = higher value
# aptamer binding inhibition per entry
Give your result in % as a bare value.

Consider the following illustrative entries.
[[record]]
compound = "Cc1cccc(C)c1NC1=NCCCS1"
experimental_system = "Beta-adrenergic receptor kinase 1 (Homo sapiens)"
attribute_measured = "aptamer binding inhibition"
unit_label = "%"
meas_value = 2

[[record]]
compound = "CCOC(=O)C1=C(C)OC(N)=C(C(=O)OCC)[C@@]12C(=O)N(CC(N)=O)c1ccccc12"
experimental_system = "Beta-adrenergic receptor kinase 1 (Homo sapiens)"
attribute_measured = "aptamer binding inhibition"
unit_label = "%"
meas_value = -1

[[record]]
compound = "c1cnc2c(c1)ccc1ncccc12"
experimental_system = "Beta-adrenergic receptor kinase 1 (Homo sapiens)"
attribute_measured = "aptamer binding inhibition"
unit_label = "%"
meas_value = 8


Name the reported aptamer binding inhibition value associated with the compound COc1cc(/C=C2\C(=O)NC(=O)N(c3ccccc3)C2=O)c([N+](=O)[O-])cc1OC 3

Fill in: aptamer binding inhibition of CC[C@]12C=CCN3CCC4(c5cc(Br)c(OC)cc5N(C)C4[C@@](O)(C(=O)OC)[C@@H]1OC(C)=O)C32 (stereo partly specified) is ___ 5

// query aptamer binding inhibition value for entry CC12CCC3C(CC=C4CC5(CCC43C)OCCO5)C1CCC2=O (stereo unspecified) 3

Values compiled from PubChem BioAssay.
